- System: MS2 coat protein
- Test name: apparent KD of MS2 coat protein; designed switch direction (-1 OFF switch, 1 ON switch): 1; higher = weaker reporter binding
- Reported conditions: input ligand: FMN 200 uM
Quantity kind: apparent KD of MS2 coat protein

Some solved entries appear below for comparison.
Sequence text	apparent KD of MS2 coat protein
UAAGGACAUGAGGAUCACCCAUGUGCUUCAUAUGGAGAAACUCAGGAUAUGCUGAGGAUCACCCAGCAGAAGGGAGAUCCGAGG (Eterna round: R96, puzzle: Same State NG 3)	206 nM
GAGCCAGUCCGAGGAUAUUCGUAGUAACACAUGAGGAUCACCCAUGUGGGCUCAGAAGAGCCCUUGGAGAAGGCGGGCUGGCUC [SS-NG2-LRO19] (Eterna round: R96, puzzle: Same State NG 2)	7.41 nM

Please give the measured apparent KD of MS2 coat protein for this sequence: GCAACAGGGUGAGGAUAUCUAUGGACCGACCAUAGAGAAGGCACUGGAAACACAUGAGGAUCACCCAUGUGCCAAAGAACAGUA [Eternabot solution 9] (Eterna round: R96, puzzle: Same State NG 1)
17.5 nM

###

- Tested on: MS2 coat protein
- Test name: apparent KD of MS2 coat protein; designed switch direction (-1 OFF switch, 1 ON switch): 1; higher = weaker reporter binding
- Reported conditions: input ligand: microRNA oligo, concentration not stated
The entries below come with measured apparent KD of MS2 coat protein values attached.
Give the value, in units of nM, as a plain number.

See these solved cases before continuing.
Sequence text	Quantity kind	U	Result number
UGGUACAUGGGAGGAUAUCAUGUAGAAACAUGAGGAUCACCCAUGUAGUUGGCAGCUUUGCUGAAUGAGAAGGCCCAUGUACCU [JL SSNG1 3.59] (Eterna round: R96, puzzle: Same State NG 2)	apparent KD of MS2 coat protein	nM	19.5
UUACUCAUGUAAGGAUAUGCAGCCGUUUCGGCUGCAGAAGGUACUAUAAUACAUGAGGAUCACCCAUGUCUUUUUAAUUUUUAC [JL SSNG1 1.28] (Eterna round: R96, puzzle: Same State NG 1)	apparent KD of MS2 coat protein	nM	24.4
ACAUGAGACUUAGGAUAUCUUGUACCUACAUGUGACAUGAGGAUCACCCAUGUGGUAAGUAUGAGGGAGAAGGAAGAGAUAUGU [Equivalence 38 - Jieux - Same State NG 2] (Eterna round: R96, puzzle: Same State NG 2)	apparent KD of MS2 coat protein	nM	21

Okay, next one:
Look up apparent KD of MS2 coat protein: UGUUGUAUUACAGGAUAUCUAGUAUAUUUAUUUAGAGAAGGGUAUUCACAUGAGGAUCACCCAUGUAUAUACGAGGAAGUUGUG [JMF's solution 37] (Eterna round: R96, puzzle: Same State NG 1)
29.6

###

- System: MS2 coat protein
- Test name: apparent KD of MS2 coat protein; designed switch direction (-1 OFF switch, 1 ON switch): -1; higher = weaker reporter binding
- Reported conditions: input ligand: none
Criterion: apparent KD of MS2 coat protein meeting or surpassing 40 nM. Met: yes (1). Not met: no (0).

Sequence text	Target desc	Discrete label
CCCACAGGACAUGAGGAUCACCCAUGUGCGAUAUCCUGAGCGCAGGAUAUUUUCCCACGAAAGGAAGAGAAGGGCGCCGAAAGC [Eternabot solution 1] (Eterna round: R96, puzzle: Exclusion NG 3)	MS2 coat protein	yes (1)
CCCUCACAUGAGGAUCACCCAUGUCAGGAUAUUCGAACGGUGUGUUUUUGGCCAGUUGGAAGAAGGGACAUAAA [Riinesbe] (Eterna round: R96, puzzle: Exclusion 1)	MS2 coat protein	no (0)
CCAUGCACGCUGCGGUCCUACAUGAGGAUCACCCAUGUGGUCUGGUGGCGUGGGUCGCCGGACUUGGCUCGUCUUGA [salish99_S_TOV1_R5_022] (Eterna round: R97, puzzle: Sensor, turn-off variant 1)	MS2 coat protein	no (0)
CGGAUGUCAGGAUAUCGUGCAUACAACGAAAGUUCUAUGUGCGAGAAGGGACAUGAGGAUCACCCAUGUUUACG [Omei Ex4 A11] (Eterna round: R97, puzzle: Exclusion 4)	MS2 coat protein	no (0)

Now look at this one.
Evaluate ACUUAUAGAGGAUAUACAGAAUAUUACAUGAGGAUCACCCAUGUUCUUCAAUGUAUAUAUGUAGAAGGCUAAGGAU [Mat - Exclusion 5 - JL Mod - D6] (Eterna round: R97, puzzle: Exclusion 5) : apparent KD of MS2 coat protein at minimum 40 nM?
yes (1)

Source listed as the supplement of paper PMC9170038.
